system: K-562 leukemia; experiment: NCI tumour cell line growth inhibition, 48 h
observation.type: TGI

These solved cases illustrate the format of a correct answer.
* Cc1nc2c(sc(=S)n2-c2ccccc2)c2nc3ccccc3n12 | > 100 µM
* COC/N=C(/N)NC#N | > 100 µM
* C#CCSc1nc(N)c2ncn(C3OC(COP(=O)(O)O)C(O)C3O)c2n1 (centres undefined) | > 239 µM
* CC(=O)[CH-]C(=O)Nc1ccccc1.CC(=O)[CH-]C(=O)Nc1ccccc1.CC[O-].CC[O-].[Ti+4] | > 100 µM
* Cc1occ2c1C(=O)CC1C2[C@@H](O)CC2C(C)(C)CCC[C@]12C (some centres undefined) | > 100 µM

[Q] Look up TGI for this molecule: CNC(=S)N/N=C(\C)c1nc2ncccc2[nH]1
[A] > 100 µM

[Q] Look up TGI for this molecule: Cc1cc(O)ccc1C1(c2ccc(F)cc2)OC(=O)c2ccccc21 (centres undefined)
[A] > 72.9 µM

[Q] Look up TGI for this molecule: Cc1cccc2c(Nc3ccc(NS(C)(=O)=O)cc3)c3ccc([N+](=O)[O-])cc3nc12
[A] 14 µM

[Q] Look up TGI for this molecule: NC(=O)c1cccc(-c2cc(C(N)=O)ccc2Cl)c1
[A] > 100 µM

[Q] Look up TGI for this molecule: C=C1C(=O)O[C@H]2[C@H]1CC/C(CNC(=O)/C=C/c1ccccc1)=C\CC[C@@]1(C)O[C@@H]21
[A] 7.09 µM

[Q] Look up TGI for this molecule: Oc1c(Cl)cc(Cl)c2cccnc12
[A] > 100 µM

[Q] Look up TGI for this molecule: Nc1ccc(-c2nc3ccc(F)cc3s2)cc1
[A] > 100 µM

[Q] Look up TGI for this molecule: Cc1c2ccncc2c(C)c2c1c1cc(CO)ccc1n2C
[A] 5.82 µM

[Q] Look up TGI for this molecule: COc1cc2c(cc1C)NC(=O)/C2=C\c1ccncc1
[A] > 100 µM

[Q] Look up TGI for this molecule: COc1ccc2c(c1)C(=O)c1c-2n(CCCN)c(=O)c2cc([N+](=O)[O-])ccc12
[A] 1.31 µM

[Q] Look up TGI for this molecule: Nc1ncnc2c1nnn2C1C=C(CO)C(O)C1O (centres undefined)
[A] > 100 µM

[Q] Look up TGI for this molecule: O=C1NC2CCCCC2N=C1/C(C(=O)c1ccccc1)=C(\O)c1ccccc1 (centres undefined)
[A] > 100 µM

---

tested on: M14 melanoma; experiment: NCI tumour cell line growth inhibition, 48 h
Listed here are molecules together with their documented TGI.

* CCN(CC)CCCC(C)Nc1c(-c2ccccc2)cnc2cc(Cl)ccc12 (stereo unspecified) | 3.44 µM

[Q] Look up TGI for this molecule: COc1cc(/C=C2\Cc3cc(OC)c(OC)cc3C2=O)cc(OC)c1
[A] > 100 µM

[Q] Look up TGI for this molecule: CCOC(=O)c1c(NCc2ccccc2)n(-c2ccccc2)c(=S)n(-c2ccccc2)c1=O
[A] > 100 µM

[Q] Look up TGI for this molecule: COCCOCOC(C)(C)[C@H](CCOC(C)=O)O[Si](c1ccccc1)(c1ccccc1)C(C)(C)C
[A] 49.4 µM

[Q] Look up TGI for this molecule: COc1cccc2c1[C@H]1CO[C@H]3C4C[C@H](C(=O)O)C([C@@H](C2)N13)N4C (stereo partly specified)
[A] 6.35 µM

---

system: NCI-H226 lung; experiment: NCI tumour cell line growth inhibition, 48 h
observation.type: TGI

* Cc1cc(C)c2c(=N)c3ccccc3n(CCCCCCO)c2n1 | 11.1 µM

Consider the record given below.
[Q] Look up TGI for this compound: O=c1[nH]c2cc3cccnc3c(Cl)c2nc1CBr
[A] 56.1 µM

---

tested on: SW-620 colon; test: NCI tumour cell line growth inhibition, 48 h
Listed here are compounds together with their documented GI50.

These solved cases illustrate the format of a correct answer.
* CN(c1ccc(C#N)c(Cl)c1)C1CCC(NC(=O)c2ccc(N3CCN(C4CN(c5ccc6c(c5)C(=O)N(C5CCC(=O)NC5=O)C6=O)C4)CC3)cc2)CC1 (stereo unspecified) | > 100 µM
* CCOC1OC(=O)[C@H]2[C@@H]1[C@@H]1CC[C@H]2O1 (stereo partly specified) | > 100 µM
* O=C1CCC(N2C(=O)c3cccc(NCCCC4CCN(CCNC(=O)c5cc6c(o5)C(=O)c5ccccc5C6=O)CC4)c3C2=O)C(=O)N1 (stereo unspecified) | 0.45 µM

[Q] Look up GI50 for this compound: CC(=O)OC(C)C(OC(C)=O)C(OC(C)=O)C(/C=C/C1CC=CC(=O)O1)OC(C)=O (stereo unspecified)
[A] 16.1 µM

[Q] Look up GI50 for this compound: O=C1CSC(c2ccccc2O)N1c1nnc(Cn2ccnc2)o1 (stereo unspecified)
[A] 5.14 µM

[Q] Look up GI50 for this compound: N/C(=N\c1nc2ccccc2s1)NC(=NC1CCCCC1)NC1CCCCC1
[A] 1.65 µM

---

system: A549 NSCLC; assay: NCI tumour cell line growth inhibition, 48 h
Listed here are molecules together with their documented TGI.

- CC(=O)O.CC(=O)O.CC(=O)O.CC(=O)O.[Rh].[Rh]: > 100 µM
- CC(=O)NNc1nc(C)c(C(=O)/C=C/c2ccc(/C=C/C(=O)c3sc(NNC(C)=O)nc3C)cc2)s1: > 100 µM
- Cc1nn(C)c2nc3ccc(Cl)cc3c(-c3ccccc3)c12: > 100 µM
- COP(=O)(OC)C(NC=O)P(=O)(OC)OC: > 100 µM
- COC(=O)C1=C(C)N(NC(=O)c2ccccc2)C2(O)CCCC(=O)C12C (stereo not given): > 100 µM

[Q] Look up TGI for this molecule: CCn1c2ccc(O)c(C(=O)OC)c2c2cc3ccccc3c(O)c21
[A] 83 µM

[Q] Look up TGI for this molecule: CSc1ncc2c(n1)-c1ccccc1OC2NC(C)(C)C (stereo not given)
[A] > 100 µM

[Q] Look up TGI for this molecule: COC(=O)C#CCC1CCCC1C1SCCS1 (stereo not given)
[A] > 100 µM

[Q] Look up TGI for this molecule: CC(C)C(C/C=C1/CC(CO)(COC(=O)C2CCCCC2)OC1=O)C(C)C (stereo not given)
[A] 26.4 µM

[Q] Look up TGI for this molecule: COC1(C)C(=O)N2C1N(C(=O)OCc1ccccc1)CC2(C)C (stereo not given)
[A] > 100 µM

[Q] Look up TGI for this molecule: O=C1/C(=C/c2cccc(Br)c2)COc2ccc(O)c(O)c21
[A] 4.82 µM

[Q] Look up TGI for this molecule: O=S(=O)(NC1=NCCN1C(=S)SN1CCn2c1nsc2=S)c1cccc(OC(F)(F)F)c1
[A] 44.8 µM

[Q] Look up TGI for this molecule: Cc1ccc(N=C2SC(c3ccc(C)cc3)(c3ccc(C)cc3)c3ccccc32)cc1
[A] > 100 µM

[Q] Look up TGI for this molecule: Cc1nc2ccccc2c(=O)n1/N=C(\N=Nc1cccc(Cl)c1)c1ccccc1Cl
[A] > 100 µM

[Q] Look up TGI for this molecule: COc1ccc2c(-c3ccc(OCCN(C)C)cc3)c(Oc3ccc(Cl)cc3)c(=O)oc2c1
[A] 18.7 µM

---

tested on: SK-MEL-28 melanoma; assay: NCI tumour cell line growth inhibition, 48 h; in the data active = GI50 below about 0.43 µM; inactive = the rest
Please answer using one outcome listed in t (active), f (inactive)

The following molecules have reported results that may help.
- CCC[CH2][Sn]([CH2]CCC)([O]C(=O)/C=C/c1ccccc1F)[O]C(=O)/C=C/c1ccccc1F: t
- COc1ccc(Oc2ccccc2NC(=O)CNC(=O)c2cccc3ccccc23)cc1: f

Now for a further molecule.
[Q] Look up the recorded call for CCOC(=O)C1=C(C)N2C(=NC3=C(CCC/C3=C\c3ccc(Cl)cc3)C2c2ccc(Cl)cc2)S1 (stereo not drawn) in this test.
[A] f

---

test system: OVCAR-4 ovarian; experiment: NCI tumour cell line growth inhibition, 48 h
observation.type: TGI

These solved cases illustrate the format of a correct answer.
* O=S1(=O)C(c2ccccc2)=C(O)c2ccccc21 | > 100 µM
* COP(=O)(OC)C(NC=O)P(=O)(OC)OC | > 100 µM
* Cc1nn(C(=O)c2ccncc2)c2c1C(c1cccc([N+](=O)[O-])c1)SC(N)=N2 (stereo not drawn) | > 10 µM
* C#C[C@H]1CCCCCC1O (stereo partly drawn) | > 100 µM
* COc1ccc(Oc2ccccc2NC(=O)CNC(=O)c2cccc3ccccc23)cc1 | > 25 µM
* COC/N=C(/N)NC#N | > 100 µM
* CCCCCCCCCCCCCP(=O)(NCC(N)=O)OCC (stereo not drawn) | 32.2 µM
* CC(=O)c1ccc(N2CCN(C3=CC(=O)c4c(O)ccc(O)c4C3=O)CC2)cc1 | > 100 µM

[Q] Look up TGI for this compound: N#CC1(c2ccccc2)CCN(C2(c3ccccc3)CCCCC2)CC1
[A] > 100 µM

[Q] Look up TGI for this compound: CC(C)=Nn1cnc(C(=N)C#N)c1N
[A] > 100 µM

[Q] Look up TGI for this compound: CC(=O)C12C[C@](C#N)(N3CCCCCC3)C1C=Cc1ccccc12 (stereo partly drawn)
[A] > 100 µM

[Q] Look up TGI for this compound: O=C1CSC(c2ccccc2O)N1c1nnc(Cn2ccnc2)o1 (stereo not drawn)
[A] 37.2 µM

[Q] Look up TGI for this compound: CNC(=S)N/N=C(\C)c1nc2ncccc2[nH]1
[A] > 100 µM

[Q] Look up TGI for this compound: O=C1CCC(N2C(=O)c3cccc(NCCCC4CCN(CCNC(=O)c5cc6c(o5)C(=O)c5ccccc5C6=O)CC4)c3C2=O)C(=O)N1 (stereo not drawn)
[A] 2.08 µM

[Q] Look up TGI for this compound: CN(CCc1ccc(Cl)c(Cl)c1)CCN(C)CCN1CCCC1
[A] > 100 µM

[Q] Look up TGI for this compound: COC(=O)C#CCC1CCCC1C1SCCS1 (stereo not drawn)
[A] > 100 µM

[Q] Look up TGI for this compound: CCOC1OC(=O)[C@H]2[C@@H]1[C@@H]1CC[C@H]2O1 (stereo partly drawn)
[A] > 100 µM

[Q] Look up TGI for this compound: COc1cc(/C=C/[N+](=O)[O-])cc(OC)c1OC
[A] 11.5 µM

[Q] Look up TGI for this compound: O/N=C1/C2CC3CC1(c1ccccc1)CC(/C3=N/O)/C2=N\O (stereo not drawn)
[A] > 100 µM

[Q] Look up TGI for this compound: C=C1CC[C@@H]2[C@](C)(COC(C)=O)[C@H](OC(C)=O)CC[C@@]2(C)[C@@H]1CC(Nc1ccc(S(=O)(=O)Nc2nccs2)cc1)C1=CCOC1=O (stereo partly drawn)
[A] 17.7 µM

[Q] Look up TGI for this compound: O=c1c(-c2ccccc2)coc2cc(OC/C(=N/O)c3ccc(F)cc3)ccc12
[A] 59.3 µM

[Q] Look up TGI for this compound: CN(/N=N/c1nc[nH]c1C(N)=O)C1CCCCC1
[A] > 100 µM
